# target under test: EGFR (Homo sapiens, UniProt P00533)
# Sequence (P00533 25-1210): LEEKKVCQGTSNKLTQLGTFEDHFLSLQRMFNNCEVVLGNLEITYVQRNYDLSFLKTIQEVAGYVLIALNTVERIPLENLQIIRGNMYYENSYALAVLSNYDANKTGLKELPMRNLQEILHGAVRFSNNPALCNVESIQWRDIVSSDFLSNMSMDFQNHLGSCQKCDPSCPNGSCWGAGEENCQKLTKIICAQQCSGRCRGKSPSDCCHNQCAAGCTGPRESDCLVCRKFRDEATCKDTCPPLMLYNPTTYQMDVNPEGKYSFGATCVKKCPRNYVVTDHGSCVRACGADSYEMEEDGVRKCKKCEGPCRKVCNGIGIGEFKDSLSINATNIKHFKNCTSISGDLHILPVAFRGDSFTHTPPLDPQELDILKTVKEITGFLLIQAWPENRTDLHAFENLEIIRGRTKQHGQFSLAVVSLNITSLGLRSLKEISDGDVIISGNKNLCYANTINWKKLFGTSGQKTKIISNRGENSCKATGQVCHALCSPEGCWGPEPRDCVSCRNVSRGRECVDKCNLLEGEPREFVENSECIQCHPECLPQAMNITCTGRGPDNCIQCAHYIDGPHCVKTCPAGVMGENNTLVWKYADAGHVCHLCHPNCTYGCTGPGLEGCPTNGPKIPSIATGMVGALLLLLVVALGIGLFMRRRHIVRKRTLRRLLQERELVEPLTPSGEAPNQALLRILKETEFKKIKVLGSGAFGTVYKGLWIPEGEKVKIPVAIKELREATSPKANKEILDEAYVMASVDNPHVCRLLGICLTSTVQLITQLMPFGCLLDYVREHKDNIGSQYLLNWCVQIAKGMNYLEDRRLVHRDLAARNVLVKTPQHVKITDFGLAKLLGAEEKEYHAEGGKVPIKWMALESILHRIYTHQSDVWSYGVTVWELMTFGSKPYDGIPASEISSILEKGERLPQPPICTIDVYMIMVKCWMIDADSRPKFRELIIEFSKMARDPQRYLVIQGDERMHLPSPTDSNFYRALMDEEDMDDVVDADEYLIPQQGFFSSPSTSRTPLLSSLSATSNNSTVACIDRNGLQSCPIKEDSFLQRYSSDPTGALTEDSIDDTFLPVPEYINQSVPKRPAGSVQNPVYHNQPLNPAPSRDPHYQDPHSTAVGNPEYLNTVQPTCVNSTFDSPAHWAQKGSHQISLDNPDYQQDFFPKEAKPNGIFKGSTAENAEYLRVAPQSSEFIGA
# protocol notes: ADP-Glo kinase assay, EGFR
# Type: biochemical
# Design: purchased BPS Bioscience (assay run externally by the vendor)
# protocol conditions: Log[nM] 2.0; Set1
Param label: returns Fulfilled when EGFR % Activity Set1 < 50%, returns Not fulfilled otherwise, including exact equality.

Lab log: compare recorded EGFR % Activity Set1 with 50%; is it strictly lower for Fc1cc(Nc2ncnc3[nH]ccc23)ccc1Cl [Compound 3] ?
Fulfilled

Lab log: compare recorded EGFR % Activity Set1 with 50%; is it strictly lower for Clc1ccccc1Nc1ncnc2[nH]ccc12 [Compound 14] ?
Not fulfilled

Lab log: compare recorded EGFR % Activity Set1 with 50%; is it strictly lower for Cc1ccc(Nc2ncnc3[nH]ccc23)cc1 [Compound 9] ?
Not fulfilled

Lab log: compare recorded EGFR % Activity Set1 with 50%; is it strictly lower for c1ccc(Cc2ccc(Nc3ncnc4[nH]ccc34)cc2)cc1 [Compound 18] ?
Fulfilled

Lab log: compare recorded EGFR % Activity Set1 with 50%; is it strictly lower for FC(F)(F)c1cccc(Nc2ncnc3[nH]ccc23)c1 [Compound 13] ?
Fulfilled

Lab log: compare recorded EGFR % Activity Set1 with 50%; is it strictly lower for Brc1ccc(Nc2ncnc3[nH]ccc23)cc1 [Compound 10] ?
Not fulfilled

Lab log: compare recorded EGFR % Activity Set1 with 50%; is it strictly lower for Brc1cccc(Nc2ncnc3[nH]ccc23)c1 [Compound 2] ?
Fulfilled

Lab log: compare recorded EGFR % Activity Set1 with 50%; is it strictly lower for Clc1cccc(Nc2ncnc3[nH]ccc23)c1 [Compound 11] ?
Fulfilled

Lab log: compare recorded EGFR % Activity Set1 with 50%; is it strictly lower for Cc1ccccc1Nc1ncnc2[nH]ccc12 [Compound 15] ?
Not fulfilled

Lab log: compare recorded EGFR % Activity Set1 with 50%; is it strictly lower for Nc1nc(Nc2cccc(Br)c2)c2cc[nH]c2n1 [Compound 8] ?
Not fulfilled

Hello, the source for this data is paper PMC6009956, in case you need it.
